meta.source: the supplement of paper PMC12350171

- Tested on: Vibrio cholerae
- method-summary: growth AUC normalised to DMSO control (fraction of control); higher = less growth inhibition, active = hit call of the paper
- run-parameters: 20 µM
Where a name gives a salt, the structure may show the parent alone.

compound: CC(NCCC(c1ccccc1)c1ccccc1)c1ccccc1 (configuration not stated) [Fendiline hydrochloride]
target-entity: Vibrio cholerae
growth AUC normalised to DMSO control: 0.86
--
compound: CC(c1cc2ccccc2s1)N(O)C(N)=O (configuration not stated)
target-entity: Vibrio cholerae
growth AUC normalised to DMSO control: 1
--
compound: C[C@H]1O[C@H](O[C@H]2[C@H](O)[C@@H](O)[C@@H](O[C@@H]([C@H](O)[C@@H](O)C=O)[C@H](O)CO)O[C@@H]2CO)[C@H](O)[C@@H](O)[C@@H]1N[C@H]1C=C(CO)[C@@H](O)[C@H](O)[C@H]1O
target-entity: Vibrio cholerae
growth AUC normalised to DMSO control: 0.999
--
compound: O=C1NCC2(CCN(CCc3ccccc3)CC2)O1 [Fenspiride hydrochloride]
target-entity: Vibrio cholerae
growth AUC normalised to DMSO control: 0.994
--
compound: O=C(O)CCC(=O)c1ccc(-c2ccccc2)cc1
target-entity: Vibrio cholerae
growth AUC normalised to DMSO control: 0.87
--
compound: C=C[C@H]1CN2CC[C@H]1C[C@@H]2[C@@H](O)c1ccnc2ccc(OC)cc12 [Quinidine hydrochloride monohydrate]
target-entity: Vibrio cholerae
growth AUC normalised to DMSO control: 0.985
--
compound: CN[C@@H]1[C@H](O[C@H]2[C@H](O[C@H]3[C@H](O)[C@@H](O)[C@H](N=C(N)N)[C@@H](O)[C@@H]3N=C(N)N)O[C@@H](C)[C@]2(O)C=O)O[C@@H](CO)[C@H](O)[C@H]1O [Streptomycin sulfate]
target-entity: Vibrio cholerae
growth AUC normalised to DMSO control: 1.06

* * *

- System: Vibrio cholerae
- method-summary: growth AUC normalised to DMSO control (fraction of control); higher = less growth inhibition, active = hit call of the paper
- run-parameters: 20 µM
Where a name gives a salt, the structure may show the parent alone.
Collected growth AUC normalised to DMSO control values appear next to each entry.

compound: O=C1OCCN1/N=C/c1ccc([N+](=O)[O-])o1 [Furazolidone]
growth AUC normalised to DMSO control: 0.0449
//
compound: N=C(N)NC(=N)NCCc1ccccc1 [Phenformin hydrochloride]
growth AUC normalised to DMSO control: 1.01
//
compound: CN(C)CCOC(c1ccc(Cl)cc1)c1ccccn1 (stereo not given) [Carbinoxamine maleate salt]
growth AUC normalised to DMSO control: 1.04
//
compound: NC12CC3CC(CC(C3)C1)C2 [Adamantamine fumarate]
growth AUC normalised to DMSO control: 1.03
//
compound: Clc1ccc(C(Cn2ccnc2)OCc2csc3c(Cl)cccc23)c(Cl)c1 (stereo not given) [Sertaconazole nitrate]
growth AUC normalised to DMSO control: 1.05

* * *

- Test system: Vibrio cholerae
- method-summary: growth AUC normalised to DMSO control (fraction of control); higher = less growth inhibition, active = hit call of the paper
- run-parameters: 20 µM
Counter-ions that a name gives are not always drawn.
experimental-readout: growth AUC normalised to DMSO control

compound: OC(Cn1cncn1)(Cn1cncn1)c1ccc(F)cc1F
target-entity: Vibrio cholerae
recorded-value: 1.04

compound: CC(C)(S)C(N)C(=O)O (racemic)
target-entity: Vibrio cholerae
recorded-value: 0.996

compound: COc1cccc2c1C(=O)c1c(O)c3c(c(O)c1C2=O)C[C@@](O)(C(=O)CO)C[C@@H]3O[C@H]1C[C@H](N)[C@H](O)[C@H](C)O1 [Doxorubicin hydrochloride]
target-entity: Vibrio cholerae
recorded-value: 0.998

compound: C[C@]12CCC(=O)C=C1CC[C@@H]1[C@@H]2[C@@H](O)C[C@@]2(C)[C@H]1CC[C@]2(O)C(=O)CO [Hydrocortisone]
target-entity: Vibrio cholerae
recorded-value: 0.97

* * *

- Test system: Yersinia pseudotuberculosis
- method-summary: growth AUC normalised to DMSO control (fraction of control); higher = less growth inhibition, active = hit call of the paper
- run-parameters: 20 µM
Where a name gives a salt, the structure may show the parent alone.

molecule: NCCCC[C@H](N[C@@H](CCc1ccccc1)C(=O)O)C(=O)N1CCC[C@H]1C(=O)O
target-entity: Yersinia pseudotuberculosis
growth AUC normalised to DMSO control: 1.01 (inactive)
//
molecule: O=C(N[C@H](CO)[C@H](O)c1ccc([N+](=O)[O-])cc1)C(Cl)Cl
target-entity: Yersinia pseudotuberculosis
growth AUC normalised to DMSO control: 0.0352 (active)
//
molecule: CCOC(=O)[N-]c1c[n+](N2CCOCC2)no1
target-entity: Yersinia pseudotuberculosis
growth AUC normalised to DMSO control: 1.01 (inactive)
//
molecule: CC(C(=O)O)c1ccc(C(=O)c2ccccc2)s1 (stereo not given)
target-entity: Yersinia pseudotuberculosis
growth AUC normalised to DMSO control: 1.01 (inactive)
//
molecule: CCCN[C@H]1CCc2nc(N)sc2C1 [Pramipexole dihydrochloride]
target-entity: Yersinia pseudotuberculosis
growth AUC normalised to DMSO control: 0.994 (inactive)

* * *

- Tested on: Vibrio cholerae
- method-summary: growth AUC normalised to DMSO control (fraction of control); higher = less growth inhibition, active = hit call of the paper
- run-parameters: 20 µM
Structures can show the parent of a compound that is named as a salt.
Decide using growth AUC normalised to DMSO control: a value greater than or equal to 1 is Yes, a smaller one is No.

molecule: Nc1nc(=S)c2ncn([C@@H]3O[C@H](CO)[C@@H](O)[C@H]3O)c2[nH]1
category: No
//
molecule: N=C(N)NCCN1CCCCCCC1 [Guanethidine sulfate]
category: Yes
//
molecule: C[C@@H](c1ncncc1F)[C@](O)(Cn1cncn1)c1ccc(F)cc1F
category: No
//
molecule: CS(=O)(=O)Nc1ccc([N+](=O)[O-])cc1Oc1ccccc1 [Nimesulide]
category: No
//
molecule: Clc1ccc(C(Cn2ccnc2)OCc2c(Cl)cccc2Cl)c(Cl)c1 (stereo not drawn)
category: No
//
molecule: CN1CCN(C2=Nc3ccccc3Oc3ccc(Cl)cc32)CC1 [Loxapine succinate]
category: No
//
molecule: CC1(C)S[C@@H]2[C@H](NC(=O)Cc3ccccc3)C(=O)N2[C@H]1C(=O)O [Benzylpenicillin sodium]
category: No
//
molecule: Nc1c(Br)cc(Br)cc1CN[C@H]1CC[C@H](O)CC1 [Ambroxol hydrochloride]
category: No
//
molecule: CN(C)CCOC1=Cc2ccccc2Sc2ccc(Cl)cc21 [Zotepine]
category: No
//
molecule: CC(C)Cn1cnc2c(N)nc3ccccc3c21
category: Yes
//
molecule: C[C@H](CCC(=O)O)[C@H]1CC[C@H]2[C@@H]3[C@@H](O)C[C@@H]4C[C@H](O)CC[C@]4(C)[C@H]3CC[C@]12C
category: Yes
//
molecule: CC(C(=O)O)c1ccc(C(=O)c2cccs2)cc1 (stereo not drawn)
category: Yes
//
molecule: CC(C)(C)NC(=O)[C@@H]1C[C@@H]2CCCC[C@@H]2CN1C[C@@H](O)[C@H](Cc1ccccc1)NC(=O)[C@H](CC(N)=O)NC(=O)c1ccc2ccccc2n1 [Saquinavir mesylate]
category: Yes
//
molecule: CN1CCN(C(c2ccccc2)c2ccc(Cl)cc2)CC1 (stereo not drawn) [Chlorcyclizine hydrochloride]
category: No
//
molecule: Clc1ccc(C(c2ccccc2Cl)C(Cl)Cl)cc1 (stereo not drawn)
category: Yes
//
molecule: NCCCCCC(=O)O
category: Yes
//
molecule: O=c1[nH]c(=O)n([C@H]2C[C@H](O)[C@@H](CO)O2)cc1F
category: No
//
molecule: O=C(O)CN(CCN(CC(=O)O)CC(=O)O)CCN(CC(=O)O)CC(=O)O
category: Yes
//
molecule: CC[C@H](C)C(=O)O[C@H]1C[C@H](O)C=C2C=C[C@H](C)[C@H](CC[C@@H](O)C[C@@H](O)CC(=O)O)[C@H]21
category: Yes

* * *

- System: P. vulgatus WT;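 further: active when median AUC fell below 0.1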
- method-summary: growth AUC normalised to DMSO control (median) (fraction of control); higher = less growth inhibition, active = hit call of the paper
- run-parameters: 20 µM
Structures can show the parent of a compound that is named as a salt.

molecule: CC(=O)CC(c1ccccc1)c1c(O)c2ccccc2oc1=O (stereo not drawn)
target-entity: P. vulgatus WT;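 further: active when median AUC fell below 0.1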
growth AUC normalised to DMSO control: 1.03
--
molecule: CCCN(CCC)CCc1cccc2c1CC(=O)N2 [Ropinirole hydrochloride]
target-entity: P. vulgatus WT;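 further: active when median AUC fell below 0.1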
growth AUC normalised to DMSO control: 1.04
--
molecule: c1ccc2[nH]c(-c3cscn3)nc2c1
target-entity: P. vulgatus WT;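 further: active when median AUC fell below 0.1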
growth AUC normalised to DMSO control: 0.971
--
molecule: CC(=O)N(O)CCCCCNC(=O)CCC(=O)N(O)CCCCCNC(=O)CCC(=O)N(O)CCCCCN [Deferoxamine mesylate]
target-entity: P. vulgatus WT;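 further: active when median AUC fell below 0.1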
growth AUC normalised to DMSO control: 1.07
--
molecule: CCCCNc1ccc(C(=O)OCCN(C)C)cc1 [Tetracaine hydrochloride]
target-entity: P. vulgatus WT;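 further: active when median AUC fell below 0.1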
growth AUC normalised to DMSO control: 1.07
--
molecule: CCc1c(C)[nH]c2c1C(=O)C(CN1CCOCC1)CC2 (stereo not drawn) [Molindone hydrochloride]
target-entity: P. vulgatus WT;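 further: active when median AUC fell below 0.1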
growth AUC normalised to DMSO control: 1.05
--
molecule: O=c1oc2ccccc2c(O)c1Cc1c(O)c2ccccc2oc1=O
target-entity: P. vulgatus WT;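 further: active when median AUC fell below 0.1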
growth AUC normalised to DMSO control: 0.945
--
molecule: C#C[C@]1(O)CC[C@H]2[C@@H]3CCc4cc(OC)ccc4[C@H]3CC[C@@]21C
target-entity: P. vulgatus WT;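 further: active when median AUC fell below 0.1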
growth AUC normalised to DMSO control: 0.96
--
molecule: Cc1cc2c(s1)Nc1ccccc1N=C2N1CCN(C)CC1
target-entity: P. vulgatus WT;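 further: active when median AUC fell below 0.1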
growth AUC normalised to DMSO control: 1.03
--
molecule: CN1CCOC(c2ccccc2)c2ccccc2C1 (stereo not drawn) [Nefopam hydrochloride]
target-entity: P. vulgatus WT;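 further: active when median AUC fell below 0.1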
growth AUC normalised to DMSO control: 0.982
--
molecule: Cc1ccsc1C(=CCCN1CCC[C@@H](C(=O)O)C1)c1sccc1C [Tiagabine hydrochloride]
target-entity: P. vulgatus WT;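 further: active when median AUC fell below 0.1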
growth AUC normalised to DMSO control: 0.984
--
molecule: COC(=O)[C@H](c1ccccc1Cl)N1CCc2sccc2C1
target-entity: P. vulgatus WT;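 further: active when median AUC fell below 0.1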
growth AUC normalised to DMSO control: 0.996
--
molecule: COC(=O)Nc1nc2cc(Sc3ccccc3)ccc2[nH]1
target-entity: P. vulgatus WT;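 further: active when median AUC fell below 0.1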
growth AUC normalised to DMSO control: 1.01
--
molecule: CCCCS(=O)(=O)N[C@@H](Cc1ccc(OCCCCC2CCNCC2)cc1)C(=O)O [Tirofiban hydrochloride]
target-entity: P. vulgatus WT;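 further: active when median AUC fell below 0.1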
growth AUC normalised to DMSO control: 0.99
--
molecule: CC(=O)N[C@@H](CCC(N)=O)C(=O)O
target-entity: P. vulgatus WT;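 further: active when median AUC fell below 0.1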
growth AUC normalised to DMSO control: 1
--
molecule: COc1c(N2C[C@@H]3CCCN[C@@H]3C2)c(F)cc2c(=O)c(C(=O)O)cn(C3CC3)c12
target-entity: P. vulgatus WT;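 further: active when median AUC fell below 0.1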
growth AUC normalised to DMSO control: 0.0128
--
molecule: CN(C)CCCSC(=N)N [Dimaprit dihydrochloride]
target-entity: P. vulgatus WT;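 further: active when median AUC fell below 0.1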
growth AUC normalised to DMSO control: 0.999
--
molecule: CN1[C@@H]2CC[C@H]1C[C@@H](OC(c1ccccc1)c1ccccc1)C2 [Benztropine mesylate]
target-entity: P. vulgatus WT;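 further: active when median AUC fell below 0.1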
growth AUC normalised to DMSO control: 0.904
